- System: MDA-MB-231
- METHOD_SUMMARY: Cytotoxicity against human MDA-MB-231 cells after 72 hrs by SRB assay
- Assay type: functional, cell-based
- RUN_PARAMETERS: MDA-MB-231, 72 h
pIC50: −log10 of the molar value.
TEST_READOUT: pIC50

Check out these entries, answers already filled in.
CC(=O)Nc1ccc([C@H](O)C[C@@H](O)[C@H](C)C[C@@H](C)[C@H](O)[C@H](C)/C=C/C=C/C=C/[C@H](O)CC(=O)O)cc1	< 5.00
C[C@H](/C=C/C=C/C=C/[C@H](O)CC(=O)O)[C@@H](O)[C@H](C)C[C@@H](C)[C@H](O)CC(=O)c1ccc(N[C@@H]2O[C@H](CO)[C@@H](O)[C@H](O)[C@H]2O)cc1	< 5.00
CC(=O)Nc1ccc(C(=O)C[C@@H](O)[C@H](C)C[C@@H](C)[C@H](O)[C@H](C)/C=C/C=C/C=C/[C@H](O)CC(=O)O)cc1	< 5.00
C[C@H](/C=C/C=C/C=C/[C@H](O)CC(=O)O)[C@@H](O)[C@H](C)C[C@@H](C)[C@H](O)CC(=O)c1ccc(N)cc1	< 5.00

Check the records and state pIC50 for CNc1ccc(C(=O)C[C@@H](O)[C@H](C)C[C@@H](C)[C@H](O)[C@H](C)/C=C/C=C/C=C/[C@H](O)CC(=O)O)cc1 < 5.00

---

- Tested on: Candida albicans
- METHOD_SUMMARY: Antifungal activity against Candida albicans
- Type: functional
TEST_READOUT: MIC

Check out these entries, answers already filled in.
C[C@H](/C=C/C=C/C=C/[C@H](O)CC(=O)O)[C@@H](O)[C@H](C)C[C@@H](C)[C@H](O)CC(=O)c1ccc(N[C@@H]2O[C@H](CO)[C@@H](O)[C@H](O)[C@H]2O)cc1	> 128 µM
CNc1ccc(C(=O)C[C@@H](O)[C@H](C)C[C@@H](C)[C@H](O)[C@H](C)/C=C/C=C/C=C/[C@H](O)CC(=O)O)cc1	> 128 µM
CC(=O)Nc1ccc(C(=O)C[C@@H](O)[C@H](C)C[C@@H](C)[C@H](O)[C@H](C)/C=C/C=C/C=C/[C@H](O)CC(=O)O)cc1	> 128 µM
CC(=O)Nc1ccc([C@H](O)C[C@@H](O)[C@H](C)C[C@@H](C)[C@H](O)[C@H](C)/C=C/C=C/C=C/[C@H](O)CC(=O)O)cc1	> 128 µM

For the next question, use this compound.
Retrieve MIC on Candida albicans; query C[C@H](/C=C/C=C/C=C/[C@H](O)CC(=O)O)[C@@H](O)[C@H](C)C[C@@H](C)[C@H](O)CC(=O)c1ccc(N)cc1 > 128 µM

Data provenance is ChEMBL document CHEMBL3797200.
